Every entry's value here was drawn from patent US7674801B2.

target: S. aureus (SAU) GyrB ATPase (Staphylococcus aureus); assay: S. aureus GyrB ATPase inhibition, ammonium molybdate/malachite green phosphate detection assay; format: biochemical; details: read-out: S. aureus (SAU) GyrB ATPase % Inhibition, compound concentration 12.5 μM
Sequence (P0A0K8 whole entry): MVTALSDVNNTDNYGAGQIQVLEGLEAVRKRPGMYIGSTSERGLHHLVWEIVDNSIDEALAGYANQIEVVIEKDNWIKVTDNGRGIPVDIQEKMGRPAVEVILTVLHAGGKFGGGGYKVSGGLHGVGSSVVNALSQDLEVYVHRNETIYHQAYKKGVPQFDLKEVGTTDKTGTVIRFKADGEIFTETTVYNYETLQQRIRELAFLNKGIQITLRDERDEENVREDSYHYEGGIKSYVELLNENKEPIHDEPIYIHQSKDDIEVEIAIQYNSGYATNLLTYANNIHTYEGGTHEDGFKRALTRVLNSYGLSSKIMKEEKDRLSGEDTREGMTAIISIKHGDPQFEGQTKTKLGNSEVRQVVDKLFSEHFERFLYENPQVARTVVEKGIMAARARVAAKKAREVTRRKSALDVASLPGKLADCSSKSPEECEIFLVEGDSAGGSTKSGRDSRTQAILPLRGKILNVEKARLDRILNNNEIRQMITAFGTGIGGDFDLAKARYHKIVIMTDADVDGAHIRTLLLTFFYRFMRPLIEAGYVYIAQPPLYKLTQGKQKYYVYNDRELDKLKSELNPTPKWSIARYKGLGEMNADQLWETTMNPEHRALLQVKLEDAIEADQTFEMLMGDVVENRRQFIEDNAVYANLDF
Sequence (P0AES4 whole entry, further chain): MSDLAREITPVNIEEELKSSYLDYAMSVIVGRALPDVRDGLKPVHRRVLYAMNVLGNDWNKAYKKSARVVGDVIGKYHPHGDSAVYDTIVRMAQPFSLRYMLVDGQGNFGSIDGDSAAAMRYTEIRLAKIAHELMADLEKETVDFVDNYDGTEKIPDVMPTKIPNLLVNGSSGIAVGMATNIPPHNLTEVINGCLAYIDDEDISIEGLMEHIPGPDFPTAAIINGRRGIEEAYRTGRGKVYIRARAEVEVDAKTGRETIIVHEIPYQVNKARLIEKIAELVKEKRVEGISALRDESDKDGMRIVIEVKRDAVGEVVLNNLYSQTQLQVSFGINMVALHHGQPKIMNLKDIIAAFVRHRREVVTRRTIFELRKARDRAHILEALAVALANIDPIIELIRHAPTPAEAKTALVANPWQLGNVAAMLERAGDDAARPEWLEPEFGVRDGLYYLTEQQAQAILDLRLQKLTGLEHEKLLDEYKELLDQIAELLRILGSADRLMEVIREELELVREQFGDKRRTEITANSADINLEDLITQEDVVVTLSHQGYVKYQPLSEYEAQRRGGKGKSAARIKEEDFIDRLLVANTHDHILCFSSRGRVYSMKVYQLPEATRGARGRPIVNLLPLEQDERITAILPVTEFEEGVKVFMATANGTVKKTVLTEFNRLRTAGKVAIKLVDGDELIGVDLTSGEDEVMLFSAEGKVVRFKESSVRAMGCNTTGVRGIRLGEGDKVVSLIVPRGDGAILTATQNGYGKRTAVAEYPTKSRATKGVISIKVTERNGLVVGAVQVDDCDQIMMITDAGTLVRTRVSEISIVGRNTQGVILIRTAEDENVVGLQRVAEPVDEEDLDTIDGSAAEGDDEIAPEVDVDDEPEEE
Reported values of inhibition at 12.5 µM for individual entries
The answer is to be given in %; state only the numeric part.

// below: answered compounds
>  <Structure smiles string>
CCNC(=O)Nc1cc(-c2nc(C(C)(C)C)cs2)c(-c2cncc(C(=O)OCC)c2)cn1

>  <inhibition at 12.5 µM [%]>
99.2

$$$$
>  <Structure smiles string>
CCNC(=O)Nc1ccc(-c2nc(C(=O)N(C)C)c(C(=O)NC(C)C)s2)cn1

>  <inhibition at 12.5 µM [%]>
84.1

$$$$
>  <Structure smiles string>
CCCCNC(=O)c1nc(-c2ccc(NC(=O)NCC)nc2)sc1C(N)=O

>  <inhibition at 12.5 µM [%]>
99

$$$$
>  <Structure smiles string>
CCNC(=O)Nc1ccc(-c2ccc3nc(C)c(C(=O)OCC)n3c2)cn1

>  <inhibition at 12.5 µM [%]>
96.7

$$$$
>  <Structure smiles string>
CCNC(=O)Nc1ccc(-c2ncc(C(=O)O)s2)cn1

>  <inhibition at 12.5 µM [%]>
99.1

$$$$

Give the reported inhibition at 12.5 µM for this compound. `CCNC(=O)Nc1ccc(-c2nc(C(=O)NC3CC3)c(C(=O)OCC)s2)cn1`
93.5

Give the reported inhibition at 12.5 µM for this compound. `CCNC(=O)Nc1ccc(-c2nc(C(=O)N(C)C)c(C(=O)N(C)C)s2)cn1`
80.1

Give the reported inhibition at 12.5 µM for this compound. `CCNC(=O)Nc1ccc(-c2nc(C(=O)NC(C)(C)C)c(C(=O)O)s2)cn1`
98.9

Give the reported inhibition at 12.5 µM for this compound. `CCNC(=O)Nc1ccc(-c2cncc(C(=O)O)c2)cn1`
95.1
